Would you kindly list cell viability for each of these molecules?
- System: SEM cells
- Protocol Summary: cell viability relative to DMSO control; higher = less cytotoxic
- Experimental Parameters: HPLM + 10% dialyzed FBS; 48 h; 0.569 µM
Answers are plain numbers, in %.

Examples from the recorded data:
# Molecule, Unit Of Measure, cell viability
measured = [
    ("C[C@]12CCC(=O)C=C1CC[C@@H]1[C@@H]2[C@@H](O)C[C@@]2(C)[C@H]1CC[C@]2(O)C(=O)CO", "%", 121),
    ("Clc1ccc(-c2nc3sccn3c2/C=N/OCc2ccc(Cl)c(Cl)c2)cc1", "%", 115),
    ("COC(=O)Nc1nc2cc(C(=O)c3ccccc3)ccc2[nH]1", "%", 69.6),
    ("OC[C@H]1O[C@H]([C@H](O)[C@@H]1O)N2\\C=C/C(=O)NC2=O", "%", 122),
    ("COC(=O)C[C@](O)(CCCC(C)(C)O)C(=O)O[C@@H]1C(OC)=CC23CCCN2CCc2cc4c(cc2[C@H]13)OCO4 (stereo partly drawn)", "%", 119),
]

Hi! Can you tell me cell viability for each of these molecules?
1. Nc1ncnc2c1ncn2[C@@H]1O[C@@H](CO)[C@H](O)[C@@H]1O
2. Cc1nn(Cc2ccccc2Cl)c(C)c1CN(C)CC(O)COc1ccc(Cl)cc1 (stereo not drawn)
3. CC1(C)O[C@@H]2C[C@H]3[C@@H]4C[C@H](F)C5=CC(=O)C=C[C@]5(C)[C@@]4(F)[C@@H](O)C[C@]3(C)[C@]2(C(=O)CO)O1

109
109
41
